Target: PPARδ (Homo sapiens)
Construct: fused to amino acids 147-441 of PPARδ downstream of CMV promoter; expressed in transfected cells; host or cells: HEK293 cells, transiently transfected with pFACMV-PPARδ using Fugene
Sequence (Q03181 147-441): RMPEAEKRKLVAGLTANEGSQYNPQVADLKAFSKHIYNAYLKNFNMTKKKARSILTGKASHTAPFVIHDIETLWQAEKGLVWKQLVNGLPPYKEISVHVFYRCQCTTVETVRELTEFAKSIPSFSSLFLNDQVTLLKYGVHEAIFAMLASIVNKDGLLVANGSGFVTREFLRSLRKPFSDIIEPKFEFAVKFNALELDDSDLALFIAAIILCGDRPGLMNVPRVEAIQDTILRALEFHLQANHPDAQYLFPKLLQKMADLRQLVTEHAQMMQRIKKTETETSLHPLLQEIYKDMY
Experiment: Transactivation assay (PPARδ GAL4 assay) in transiently transfected HEK293 cells
Type: cell-based
Settings: luciferase reporter, Table 1
metric name: EC50

QUERY: Look at this compound and give its reported EC50. "CCc1cc(C(=O)c2ccc(-c3ccc(C(F)(F)F)cc3)cc2)c(NC(=O)CSCC(=O)O)s1"
RESULT: < 100 nM

QUERY: Look at this compound and give its reported EC50. "CCc1cc(C(=O)c2ccc(-c3cncnc3)cc2)c(NC(=O)CSCC(=O)O)s1"
RESULT: 1000 to 30000 nM

QUERY: Look at this compound and give its reported EC50. "COc1ccc(C(=O)c2cc(Cl)sc2NC(=O)CSCC(=O)O)cn1"
RESULT: 1000 to 30000 nM

QUERY: Look at this compound and give its reported EC50. "CCc1cc(C(=O)c2cccc(OC)c2)c(NC(=O)CSCC(=O)O)s1"
RESULT: 1000 to 30000 nM

QUERY: Look at this compound and give its reported EC50. "CCc1cc(C(=O)c2ccc(Cl)c(Cl)c2)c(NC(=O)CC(C)(C)CC(=O)O)s1"
RESULT: 1000 to 30000 nM
